Assay: Mass balance study with 14C-labeled abemaciclib
Format: in vivo, human
Details: human, urine, oral, 150 mg
Experimental readout: CL renal (mL/min)
Give bare numbers, in mL/min.

Read off the recorded CL renal for CCN1CCN(Cc2ccc(Nc3ncc(F)c(-c4cc(F)c5nc(C)n(C(C)C)c5c4)n3)nc2)CC1
16.7

----------
Test: Clarithromycin interaction study
Assay type: in vivo
Settings: both, human, plasma, po, 50 mg
Experimental readout: AUC (ng·h/mL)
Give bare numbers, in ng·h/mL.

Read off the recorded AUC for CCN1CCN(Cc2ccc(Nc3ncc(F)c(-c4cc(F)c5nc(C)n(C(C)C)c5c4)n3)nc2)CC1 [Abemaciclib]
2230
